system: Aphis craccivora; assay: Insecticidal activity against Aphis craccivora by immersing (mortality after 24 hours); format: in vivo; details: in vivo
reportedMetric: Aphis craccivora Mortality (%) (100 ppm)
API: value field is a number in %; no unit string.

Solved entries:
CC1CC(O)N2CCN(Cc3ccc(Cl)nc3)C2=C1[N+](=O)[O-] (stereo not shown) [a]; 95.3
CCOC1CC(C)C([N+](=O)[O-])=C2N(Cc3ccc(Cl)nc3)CCN21 (stereo not shown) [c]; 67
CCC1CC([N+](=O)[O-])=C2N(Cc3ccc(Cl)nc3)CCN2C1OC (stereo not shown) [k]; 92

## Input Fill in: Aphis craccivora Mortality (%) (100 ppm) of CC1C([N+](=O)[O-])=C2N(Cc3ccc(Cl)nc3)CCN2C(O)C1C (stereo not shown) [l] is ___
## Output 66.7

## Input Moving on to the next compound: CCOC1CC(O)N2CCN(Cc3ccc(Cl)nc3)C2=C1[N+](=O)[O-] (stereo not shown) [o]
## Output 82

## Input Another compound to check: CCC1CC([N+](=O)[O-])=C2N(Cc3ccc(Cl)nc3)CCN2C1O (stereo not shown) [j]
## Output 93.6

## Input Now this one: CC(C)OC1CC(C)C([N+](=O)[O-])=C2N(Cc3ccc(Cl)nc3)CCN21 (stereo not shown) [e]
## Output 100

## Input What do you get for COC1CC([N+](=O)[O-])=C2N(Cc3ccc(Cl)nc3)CCN2C1O (stereo not shown) [p] ?
## Output 93

## Input Repeat with COC1CC(O)N2CCN(Cc3ccc(Cl)nc3)C2=C1[N+](=O)[O-] (stereo not shown) [n]
## Output 96

## Input Can you check CCC1C([N+](=O)[O-])=C2N(Cc3ccc(Cl)nc3)CCN2C(O)C1C (stereo not shown) [m] next?
## Output 87
